Kindly supply the reported inhibition at 50 µM values for the records listed here.
System: IL-6
experimental.protocol: Inhibition of IL-6 production by stimulated human peripheral blood leukocytes in vitro
Assay type: cell-based
assay.context: Homo sapiens, Leukocyte, PBL, PMA stimulated, compound 50 μM; read-out: Percentage of inhibition of IL-6 production
One number for each entry, in %.

Look up inhibition at 50 µM for the entries below, preserving their order.
1. CC[C@H]1OC(=O)[C@H](C)[C@@H](O[C@H]2C[C@@](C)(OC)[C@@H](O)[C@H](C)O2)[C@H](C)[C@@H](O[C@@H]2O[C@H](C)C[C@H](N(C)C)[C@H]2O)[C@](C)(OC)C[C@@H](C)C(=O)[C@H](C)[C@@H](O)[C@]1(C)O [Clarithromycin, clarithromycin, reference compound]
2. CC[C@H]1OC(=O)[C@H](C)[C@@H](O)[C@H](C)[C@@H](O[C@@H]2O[C@H](C)C[C@H](N(C)C)[C@H]2O)[C@](C)(O)C[C@@H](C)CN(C(=O)Nc2cccc(C(F)(F)F)c2)[C@H](C)[C@@H](O)[C@]1(C)O
3. CC[C@H]1OC(=O)[C@H](C)[C@@H](O[C@H]2C[C@@](C)(OC)[C@@H](O)[C@H](C)O2)[C@H](C)[C@@H](O[C@@H]2O[C@H](C)C[C@H](N(C)C)[C@H]2O)[C@](C)(O)C[C@@H](C)CN(C(=S)Nc2ccccc2F)[C@H](C)[C@@H](O)[C@]1(C)O
4. CC[C@H]1OC(=O)[C@H](C)[C@@H](O[C@H]2C[C@@](C)(OC)[C@@H](O)[C@H](C)O2)[C@H](C)[C@@H](O[C@@H]2O[C@H](C)C[C@H](N(C)C)[C@H]2O)[C@](C)(O)C[C@@H](C)CN(C)[C@H](C)[C@@H](O)[C@]1(C)O [Azithromycin, azithromycin, reference compound]

Result:
0
100
60
0
